target or test system: full-length recombinant rat vitamin D receptor (Rattus norvegicus)
Construct: Full-length recombinant rat receptor was expressed in E. coli; histidine tag (C); made in house; host or cells: E. coli BL21 (DE3) Codon Plus RIL
Sequence (P13053 whole entry): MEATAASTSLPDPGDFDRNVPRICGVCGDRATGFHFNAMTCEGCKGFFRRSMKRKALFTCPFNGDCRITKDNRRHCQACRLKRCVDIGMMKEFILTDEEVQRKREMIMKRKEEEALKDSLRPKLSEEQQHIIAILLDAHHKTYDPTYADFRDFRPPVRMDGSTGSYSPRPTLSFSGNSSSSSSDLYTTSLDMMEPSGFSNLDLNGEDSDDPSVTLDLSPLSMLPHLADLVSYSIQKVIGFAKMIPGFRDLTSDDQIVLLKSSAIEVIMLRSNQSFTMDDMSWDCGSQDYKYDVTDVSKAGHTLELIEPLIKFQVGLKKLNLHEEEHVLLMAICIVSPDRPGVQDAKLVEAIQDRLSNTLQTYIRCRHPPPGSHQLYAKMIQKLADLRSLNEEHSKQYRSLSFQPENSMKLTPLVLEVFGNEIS
procedure summary: Vitamin D receptor binding, competition with [3H]-1,25(OH)2D3
assay conditions: full-length recombinant rat vitamin D receptor; read-out: Ki, competition with [3H]-1,25(OH)2D3 for binding to VDR
readout type: pKi
To interpret pKi, take it as minus log10 of a concentration measured in moles per litre.

Provide pKi value for the following molecule: "C=C1[C@H](O)CC(=C/C=C2\CCC[C@]3(C)[C@@H](C(C)(C)CC)CC[C@@H]23)C[C@H]1O"
10.10

====

Listing: EC50 of selected compounds
Test system: 24-hydroxylase (24Ohase) gene promoter
procedure summary: In vitro transcription assay, luciferase reporter in ROS 17/2.8 (bone) cells
Format: cell-based
assay conditions: ROS 17/2.8 cells, sixteen hours after dosing; read-out: EC50, transcriptional activity in bone cells (24-hydroxylase gene)
For clarity, give the value followed by its unit.

# compound, readout type, recorded value
data = [
    ("C=C1/C(=C\\C=C2/CCC[C@]3(C)[C@@H]([C@H](C)CCCC(C)(C)O)CC[C@@H]23)C[C@@H](O)C[C@@H]1O [1,25(OH)2D3, 1α,25-dihydroxyvitamin D3, reference compound]", "EC50", "0.2 nM"),
]

Now examine the next entry.
Provide EC50 value for the following compound: "C=C1[C@H](O)CC(=C/C=C2\CCC[C@]3(C)[C@@H](C(C)(C)CC)CC[C@@H]23)C[C@H]1O"
4 nM
